# experimental.system: Voltage-gated potassium channel subunit beta-2 (Rattus norvegicus) (UniProt P62483)
# Sequence (P62483 whole entry, looked up): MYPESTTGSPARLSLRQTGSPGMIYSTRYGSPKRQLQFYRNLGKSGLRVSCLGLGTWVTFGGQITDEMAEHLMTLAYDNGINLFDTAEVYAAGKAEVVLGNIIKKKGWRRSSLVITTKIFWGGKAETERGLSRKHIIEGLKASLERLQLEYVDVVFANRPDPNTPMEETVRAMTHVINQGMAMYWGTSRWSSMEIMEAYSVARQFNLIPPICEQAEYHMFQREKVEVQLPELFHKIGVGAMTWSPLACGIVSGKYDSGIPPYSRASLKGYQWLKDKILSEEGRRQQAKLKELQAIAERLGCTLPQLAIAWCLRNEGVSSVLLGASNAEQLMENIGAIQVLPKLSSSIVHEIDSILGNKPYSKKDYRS
# procedure.summary: enhancers of rat Kvbeta2 NADPH turnover – biochemical, NADPH fluorescence, primary screen (AID 623);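 further: fluorescence intensity change per second fitted from 20 to 320 s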
# test.context: Recombinant KvBeta, NADPH fluorescence decrease slope, 10 min; at 10 µM; stronger effect = lower value

compound: CCCN1CCN(CCCNC(=O)Cn2nc(-c3ccc(Cl)cc3)ccc2=O)CC1
NADPH fluorescence slope: -8.1e-05
--
compound: O=C(CN1CCSCC1)N1CCc2[nH]c3ccc(Br)cc3c2C1
NADPH fluorescence slope: -5.2e-05
--
compound: CC(=O)Nc1cccc(NC(=O)C2CCCN2C(=O)Nc2ccc(C)cc2)c1 (stereo not drawn)
NADPH fluorescence slope: -4.3e-06
--
compound: CCOC(=O)N1CCC(NC(=O)Cc2ccc(-n3c(=O)[nH]c4ccccc4c3=O)cc2)CC1
NADPH fluorescence slope: -1.5e-05
--
compound: Cn1c(=O)oc2cc(S(=O)(=O)NC3CCN(Cc4ccccc4)CC3)ccc21
NADPH fluorescence slope: 1.4e-06
--
compound: Cc1cc(C)cc(NC(=O)c2nnn(Cc3cc(C)ccc3C)c2N)c1
NADPH fluorescence slope: -3.4e-05
--
compound: O=C(CSc1nnc(-c2ccc(Br)cc2)n1C1CCCCC1)N1CCCC1
NADPH fluorescence slope: 1.5e-05
--
compound: Cc1ccc(F)cc1NC(=O)C1CCCN(c2ncccn2)C1 (stereo not drawn)
NADPH fluorescence slope: -1.9e-05
--
compound: CSc1nnc(-c2nnc(SC)n2-c2ccccc2)n1-c1ccccc1
NADPH fluorescence slope: -2.1e-05
--
compound: CCOC(=O)c1oc2cc(OCC(N)=O)ccc2c(=O)c1-c1ccc(OC)c(OC)c1
NADPH fluorescence slope: -0.000137
--
compound: O=S1(=O)C=CC(Nc2cccc(Cl)c2)C1 (stereo not drawn)
NADPH fluorescence slope: -6.1e-05
--
compound: Cc1cc(C)n(CC(=O)NC2CCCCC2)n1
NADPH fluorescence slope: -1.5e-06
--
compound: CN1CCN(S(=O)(=O)c2ccc(NC(=O)Nc3cccc(Cl)c3)cc2)CC1
NADPH fluorescence slope: -3e-05
--
compound: NC(=O)c1cc(-c2ccccc2)nc(N2CCOCC2)n1
NADPH fluorescence slope: -4.3e-05
--
compound: CCN(C(=O)c1cccs1)c1nnc(-c2ccncc2)s1
NADPH fluorescence slope: -7.1e-05
--
compound: CCc1ccccc1NC(=O)C(C#N)Cc1cccnc1 (stereo not drawn)
NADPH fluorescence slope: -9e-07
--
compound: CCCC(=O)N1CCN(c2ccc(NC(=O)c3ccc(Br)o3)cc2)CC1
NADPH fluorescence slope: 6.7e-06
--
compound: Cc1ccc(CS(=O)(=O)CCC(=O)NCC2CCCO2)cc1 (stereo not drawn)
NADPH fluorescence slope: -4.6e-05
--
compound: CCOC(=O)N1CCC(NC(=O)CCC(=O)N2CC(C)Oc3ccc(Cl)cc32)CC1 (stereo not drawn)
NADPH fluorescence slope: -5e-05
--
compound: CC(=O)Nc1ccc(NS(=O)(=O)c2ccc(Cl)c(C(=O)O)c2)cc1
NADPH fluorescence slope: -3.1e-05
--
compound: CCc1ccccc1NC(=O)C(CC)Sc1nc2cc3c(cc2c(=O)n1Cc1ccco1)OCO3 (stereo not drawn)
NADPH fluorescence slope: -1.8e-05
--
compound: CCC(=O)N(Cc1ccco1)c1nc(-c2cc(OC)ccc2OC)cs1
NADPH fluorescence slope: -4.8e-05
--
compound: CCOC(=O)c1ccc(N2C(=O)C3CC=CCC3C2=O)cc1 (stereo not drawn)
NADPH fluorescence slope: -1.8e-05
